- Measured on: JAK1 (Homo sapiens)
- Construct: endogenous in cells; mixed lysate 1:2
- Sequence (P23458 whole entry): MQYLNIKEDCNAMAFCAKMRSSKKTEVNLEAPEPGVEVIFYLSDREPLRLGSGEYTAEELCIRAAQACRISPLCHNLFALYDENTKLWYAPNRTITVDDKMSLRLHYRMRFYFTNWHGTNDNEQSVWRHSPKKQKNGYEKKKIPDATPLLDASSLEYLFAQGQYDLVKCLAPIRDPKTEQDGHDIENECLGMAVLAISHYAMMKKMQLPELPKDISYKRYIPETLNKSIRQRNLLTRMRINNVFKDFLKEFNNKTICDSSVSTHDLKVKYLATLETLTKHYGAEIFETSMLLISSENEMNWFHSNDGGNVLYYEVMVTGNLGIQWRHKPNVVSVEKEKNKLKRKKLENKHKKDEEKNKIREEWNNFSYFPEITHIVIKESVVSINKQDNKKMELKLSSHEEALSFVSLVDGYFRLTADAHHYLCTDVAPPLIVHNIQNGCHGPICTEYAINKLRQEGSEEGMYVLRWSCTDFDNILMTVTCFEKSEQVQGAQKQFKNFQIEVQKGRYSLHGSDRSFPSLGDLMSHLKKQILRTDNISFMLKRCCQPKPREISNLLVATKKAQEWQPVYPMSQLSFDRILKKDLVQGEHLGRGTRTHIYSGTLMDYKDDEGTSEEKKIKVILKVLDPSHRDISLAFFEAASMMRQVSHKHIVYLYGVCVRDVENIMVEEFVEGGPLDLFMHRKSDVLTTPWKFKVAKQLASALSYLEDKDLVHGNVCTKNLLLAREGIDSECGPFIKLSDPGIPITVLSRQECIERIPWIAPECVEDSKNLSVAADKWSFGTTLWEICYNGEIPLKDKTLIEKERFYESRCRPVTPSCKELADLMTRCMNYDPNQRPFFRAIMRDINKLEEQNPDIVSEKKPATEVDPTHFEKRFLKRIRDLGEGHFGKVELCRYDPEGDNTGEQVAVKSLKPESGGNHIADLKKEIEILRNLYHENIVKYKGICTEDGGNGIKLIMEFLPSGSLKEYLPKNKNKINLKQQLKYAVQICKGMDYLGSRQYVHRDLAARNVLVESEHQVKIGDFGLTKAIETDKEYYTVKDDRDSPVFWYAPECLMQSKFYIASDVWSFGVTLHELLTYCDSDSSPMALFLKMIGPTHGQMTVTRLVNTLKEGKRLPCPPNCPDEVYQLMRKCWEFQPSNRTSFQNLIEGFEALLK
- Method notes: Kinobeads assay with immunodetection, JAK1
- Condition notes: Kinobeads assay, mixed Molt4/Ramos lysate; read-out: Inhibition values (IC50) JAK1
pIC50: −log10 of the molar value.
Quantity name: pIC50

Report the value of pIC50 obtained on JAK1 (Homo sapiens) for C=CC(=O)N1CC[C@@H](CNc2nc(Nc3cnn(CCO)c3)ncc2Cl)C1 . 6.00 to 7.00

Report the value of pIC50 obtained on JAK1 (Homo sapiens) for CS(=O)(=O)N1CCCC[C@@H]1CNc1nc(Nc2cnn(CCO)c2)ncc1Cl . 6.00 to 7.00

Report the value of pIC50 obtained on JAK1 (Homo sapiens) for Cc1cnc(Nc2cnn(C)c2)nc1NC[C@@H]1C[C@H](F)CN1CCS(C)(=O)=O . > 7.00

Report the value of pIC50 obtained on JAK1 (Homo sapiens) for Cc1cnc(Nc2cnn(C)c2)nc1NC[C@H]1CCCN1CCC#N . 6.00 to 7.00

Report the value of pIC50 obtained on JAK1 (Homo sapiens) for CN(C)C(=O)Cn1cc(Nc2ncc(Cl)c(NC[C@H]3CCCN3)n2)cn1 . 6.00 to 7.00

Report the value of pIC50 obtained on JAK1 (Homo sapiens) for Cn1cc(Nc2ncc(Cl)c(NC[C@@H]3CCCN(C(=O)CC#N)C3)n2)cn1 . > 7.00

Report the value of pIC50 obtained on JAK1 (Homo sapiens) for Cn1cc(Nc2ncc(Cl)c(NC[C@H]3CCCN3CCNS(C)(=O)=O)n2)cn1 . > 7.00

Report the value of pIC50 obtained on JAK1 (Homo sapiens) for Cn1cc(Nc2ncc(Cl)c(NC[C@@H]3CCCN3CCC#N)n2)cn1 . > 7.00

Report the value of pIC50 obtained on JAK1 (Homo sapiens) for C=CS(=O)(=O)N1CCC[C@@H]1CNc1nc(Nc2cnn(C)c2)ncc1Cl . 6.00 to 7.00

* * *

- Measured on: TYK2 (Homo sapiens, UniProt P29597)
- Construct: endogenous in cells; mixed lysate 1:2
- Sequence (P29597 whole entry): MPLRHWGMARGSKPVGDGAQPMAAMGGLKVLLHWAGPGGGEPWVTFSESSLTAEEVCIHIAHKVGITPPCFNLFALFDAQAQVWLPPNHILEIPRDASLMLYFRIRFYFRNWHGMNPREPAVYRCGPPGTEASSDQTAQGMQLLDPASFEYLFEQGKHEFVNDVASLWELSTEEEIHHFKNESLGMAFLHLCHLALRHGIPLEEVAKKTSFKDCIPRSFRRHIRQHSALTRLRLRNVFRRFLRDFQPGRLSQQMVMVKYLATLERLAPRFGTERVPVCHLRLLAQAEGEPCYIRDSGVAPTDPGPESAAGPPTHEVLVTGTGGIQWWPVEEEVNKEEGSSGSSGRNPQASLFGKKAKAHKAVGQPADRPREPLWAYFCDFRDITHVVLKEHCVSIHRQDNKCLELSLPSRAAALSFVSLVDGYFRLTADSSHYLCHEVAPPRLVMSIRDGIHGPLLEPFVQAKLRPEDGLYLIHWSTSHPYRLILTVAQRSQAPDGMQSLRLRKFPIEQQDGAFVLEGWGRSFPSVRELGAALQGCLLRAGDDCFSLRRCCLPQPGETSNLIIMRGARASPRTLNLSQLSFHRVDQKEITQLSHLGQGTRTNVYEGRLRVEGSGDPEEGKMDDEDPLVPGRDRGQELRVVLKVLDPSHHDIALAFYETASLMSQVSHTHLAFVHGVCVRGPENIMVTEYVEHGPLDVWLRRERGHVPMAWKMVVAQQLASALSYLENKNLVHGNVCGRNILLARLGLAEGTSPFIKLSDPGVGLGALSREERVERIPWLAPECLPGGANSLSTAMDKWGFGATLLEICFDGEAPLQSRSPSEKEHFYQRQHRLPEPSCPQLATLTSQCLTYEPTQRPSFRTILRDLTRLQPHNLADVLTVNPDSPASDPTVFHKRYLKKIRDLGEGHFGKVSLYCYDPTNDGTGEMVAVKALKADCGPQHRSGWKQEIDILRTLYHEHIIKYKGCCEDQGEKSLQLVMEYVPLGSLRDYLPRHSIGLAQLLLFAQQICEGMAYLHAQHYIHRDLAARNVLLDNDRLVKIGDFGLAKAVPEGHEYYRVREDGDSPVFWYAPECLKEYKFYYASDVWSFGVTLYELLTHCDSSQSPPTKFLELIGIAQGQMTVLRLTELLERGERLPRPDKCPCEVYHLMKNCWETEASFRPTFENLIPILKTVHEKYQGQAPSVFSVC
- Method notes: Kinobeads assay with immunodetection, TYK2
- Condition notes: Kinobeads assay, mixed Molt4/Ramos lysate; read-out: Inhibition values (IC50) Tyk2
pIC50: −log10 of the molar value.
Exercise: state measured pIC50 for each of the compounds provided.

Could you please provide reported pIC50 for CS(=O)(=O)N1CCC[C@H]1CNc1nc(Nc2cnn(CCO)c2)ncc1Cl ? Thanks! > 7.00

Could you please provide reported pIC50 for Cc1cnc(Nc2cnn(CC(F)F)c2)nc1NC[C@@H]1C[C@H](F)CN1CCS(C)(=O)=O ? Thanks! 6.00 to 7.00

Could you please provide reported pIC50 for Cc1cnc(Nc2cnn(C)c2)nc1NC[C@@H]1C[C@H](F)CN1CCS(C)(=O)=O ? Thanks! > 7.00

Could you please provide reported pIC50 for CN(C)C(=O)Cn1cc(Nc2ncc(Cl)c(NC[C@@H]3CCCN3)n2)cn1 ? Thanks! 6.00 to 7.00

Could you please provide reported pIC50 for CS(=O)(=O)N1CC(CNc2nc(Nc3cnn(CCO)c3)ncc2Cl)C1 ? Thanks! 6.00 to 7.00

Could you please provide reported pIC50 for CC(=O)N1CC[C@H](CNc2nc(Nc3cnn(C)c3)ncc2Cl)C1 ? Thanks! 6.00 to 7.00

Could you please provide reported pIC50 for CC(C)NC(=O)Cn1cc(Nc2nccc(NC[C@H]3CCCN3C(=O)CCC#N)n2)cn1 ? Thanks! > 7.00

Could you please provide reported pIC50 for Cc1cnc(Nc2cnn(CC(F)F)c2)nc1NC[C@H]1CCN(CCC#N)C1 ? Thanks! 6.00 to 7.00

Could you please provide reported pIC50 for Cn1cc(Nc2ncc(Cl)c(NC[C@H]3CCCN3C(=O)CO)n2)cn1 ? Thanks! > 7.00

* * *

- Measured on: JAK1 (Homo sapiens)
- Construct: endogenous in cells; host or cells: Molt4 (ATCC CRL-1582) and Ramos (ATCC CRL-1596) cells; mixed lysate 1:2
- Method notes: Kinobeads assay with immunodetection, JAK1
- Format: binding
- Condition notes: Kinobeads assay, mixed Molt4/Ramos lysate; read-out: Inhibition values (IC50) JAK1
Quantity name: IC50

Report the value of IC50 obtained on JAK1 (Homo sapiens) for Cc1cnc(Nc2cnn(CC(F)F)c2)nc1NC[C@@H]1C[C@H](F)CN1CCC#N . < 0.1 µM

Report the value of IC50 obtained on JAK1 (Homo sapiens) for Cc1cnc(Nc2cnn(CC(F)F)c2)nc1NC[C@@H]1CCCN1CCS(C)(=O)=O . < 0.1 µM

Report the value of IC50 obtained on JAK1 (Homo sapiens) for C=CC(=O)N1CC[C@H](CNc2nc(Nc3cnn(CCO)c3)ncc2Cl)C1 . < 0.1 µM

Report the value of IC50 obtained on JAK1 (Homo sapiens) for CC(=O)N1CCCC[C@@H]1CNc1nc(Nc2cnn(C)c2)ncc1Cl . 0.1 to 1 µM

Report the value of IC50 obtained on JAK1 (Homo sapiens) for C=CC(=O)N1CCCC[C@H]1CNc1nc(Nc2cnn(C)c2)ncc1Cl . 0.1 to 1 µM

Report the value of IC50 obtained on JAK1 (Homo sapiens) for Cn1cc(Nc2ncc(Cl)c(NC[C@@H]3C[C@H](F)CN3CCS(C)(=O)=O)n2)cn1 . < 0.1 µM

Report the value of IC50 obtained on JAK1 (Homo sapiens) for Cn1cc(Nc2ncc(Cl)c(NC[C@H]3CCCCN3S(C)(=O)=O)n2)cn1 . 0.1 to 1 µM

Report the value of IC50 obtained on JAK1 (Homo sapiens) for Cn1cc(Nc2ncc(Cl)c(NC[C@H]3CCCN3CCC(F)(F)F)n2)cn1 . < 0.1 µM

Report the value of IC50 obtained on JAK1 (Homo sapiens) for Cn1cc(Nc2ncc(Cl)c(NC[C@@H]3CCCCN3S(C)(=O)=O)n2)cn1 . < 0.1 µM

* * *

- Measured on: TYK2 (Homo sapiens)
- Construct: endogenous in cells; mixed lysate 1:2
- Method notes: Kinobeads assay with immunodetection, TYK2
- Condition notes: Kinobeads assay, mixed Molt4/Ramos lysate; read-out: Inhibition values (IC50) Tyk2
pIC50: −log10 of the molar value. Structures can show the parent of a compound that is named as a salt.
Exercise: state measured pIC50 for each of the molecules provided.

Could you please provide reported pIC50 for Cc1cnc(Nc2cnn(CC(F)F)c2)nc1NC[C@@H]1C[C@H](F)CN1CCC#N [Example 121] ? Thanks! > 7.00

Could you please provide reported pIC50 for Cc1cnc(Nc2cnn(CC(F)F)c2)nc1NC[C@@H]1CCCN1C(=O)CCC#N [Example 125] ? Thanks! > 7.00

Could you please provide reported pIC50 for Cc1cnc(Nc2cnn(CC(F)F)c2)nc1NC[C@H]1CCCN1C(=O)CC#N [Example 118] ? Thanks! > 7.00

Could you please provide reported pIC50 for CN1C(=O)CCC1CNc1nc(Nc2cnn(C)c2)ncc1Cl (stereo not drawn) [Example 78] ? Thanks! 6.00 to 7.00

Could you please provide reported pIC50 for Cc1cnc(Nc2cnn(C)c2)nc1NC[C@@H]1C[C@H](F)CN1CC#N [Example 102] ? Thanks! 6.00 to 7.00

Could you please provide reported pIC50 for Cc1cnc(Nc2cnn(C)c2)nc1NC[C@H]1CCCN1CCC#N [Example 108] ? Thanks! > 7.00

Could you please provide reported pIC50 for Cc1cnc(Nc2cnn(CC(F)F)c2)nc1NC[C@@H]1CCCN1CCS(C)(=O)=O [Example 123] ? Thanks! > 7.00

Could you please provide reported pIC50 for Cn1cc(Nc2ncc(Cl)c(NC[C@H]3CCCN(C(=O)CCC#N)C3)n2)cn1 [Example 138] ? Thanks! > 7.00

Could you please provide reported pIC50 for CNC(=O)Cn1cc(Nc2ncc(Cl)c(NC[C@@H]3CCCN3)n2)cn1 [Example 65] ? Thanks! 5.00 to 6.00

Could you please provide reported pIC50 for CN1CCCC1CNc1nc(Nc2cnn(C)c2)ncc1Cl (stereo not drawn) [Example 62] ? Thanks! < 5.00

Could you please provide reported pIC50 for CN(C)C(=O)Cn1cc(Nc2ncc(Cl)c(NC[C@H]3CCCN3)n2)cn1 [Example 64] ? Thanks! 5.00 to 6.00

Could you please provide reported pIC50 for Cc1cnc(Nc2cnn(C)c2)nc1NC[C@@H]1C[C@H](F)CN1CCC#N [Example 101] ? Thanks! > 7.00

Could you please provide reported pIC50 for Cn1cc(Nc2ncc(Cl)c(NC[C@H]3CCCN3CCCC#N)n2)cn1 [Example 97] ? Thanks! > 7.00

Could you please provide reported pIC50 for C=CC(=O)N1CC[C@@H](CNc2nc(Nc3cnn(C)c3)ncc2Cl)C1 [Example 28] ? Thanks! 5.00 to 6.00

Could you please provide reported pIC50 for Cn1cc(Nc2ncc(F)c(NC[C@H]3CCCN3)n2)cn1 [Example 70, Hydrochloride] ? Thanks! < 5.00

Could you please provide reported pIC50 for Cc1cnc(Nc2cnn(CC(F)F)c2)nc1NC[C@H]1CCCN1CCS(C)(=O)=O [Example 116] ? Thanks! > 7.00

Could you please provide reported pIC50 for CC(=O)N1CCCC[C@@H]1CNc1nc(Nc2cnn(CCO)c2)ncc1Cl [Example 40] ? Thanks! > 7.00

Could you please provide reported pIC50 for CC(=O)N1CCCC[C@H]1CNc1nc(Nc2cnn(CCO)c2)ncc1Cl [Example 33] ? Thanks! 5.00 to 6.00
